Can you tell me pIC50 for the items I'm about to list?
By convention, pIC50 is the negative base-10 log of a molar concentration.

## Input Give pIC50 for `O=C(NC1CCN(Cc2ccccc2)CC1)c1coc2ccc(Br)cc2c1=O` tested on UniProt:O42275.
Sequence (O42275 whole entry): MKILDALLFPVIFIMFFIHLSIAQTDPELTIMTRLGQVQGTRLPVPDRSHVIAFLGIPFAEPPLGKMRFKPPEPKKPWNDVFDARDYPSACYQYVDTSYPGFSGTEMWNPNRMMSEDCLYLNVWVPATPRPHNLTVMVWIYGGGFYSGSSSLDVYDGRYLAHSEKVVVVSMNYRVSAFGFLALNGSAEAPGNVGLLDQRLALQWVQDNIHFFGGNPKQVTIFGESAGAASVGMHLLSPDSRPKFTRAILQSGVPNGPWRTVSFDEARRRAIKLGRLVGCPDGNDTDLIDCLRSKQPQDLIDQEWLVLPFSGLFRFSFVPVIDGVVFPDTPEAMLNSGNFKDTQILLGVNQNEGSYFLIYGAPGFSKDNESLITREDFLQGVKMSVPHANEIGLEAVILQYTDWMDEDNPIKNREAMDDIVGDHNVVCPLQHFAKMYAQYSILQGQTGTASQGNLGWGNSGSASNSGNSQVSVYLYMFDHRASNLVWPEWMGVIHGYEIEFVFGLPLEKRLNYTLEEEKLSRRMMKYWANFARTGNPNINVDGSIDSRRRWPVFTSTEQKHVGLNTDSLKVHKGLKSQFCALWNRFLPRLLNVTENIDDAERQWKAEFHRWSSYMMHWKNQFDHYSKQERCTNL
## Output 5.80

## Input Give pIC50 for `O=C(NC1CCN(Cc2ccccc2)CC1)c1coc2ccccc2c1=O` tested on UniProt:O42275.
## Output 5.53

## Input Give pIC50 for `COc1ccc2c(=O)c(C(=O)NCCC3CCN(Cc4ccccc4)CC3)coc2c1` tested on UniProt:O42275.
## Output 6.84

## Input Give pIC50 for `O=C(NC1CCN(Cc2ccccc2)CC1)c1cc(=O)c2ccccc2o1` tested on UniProt:O42275.
## Output 5.24

## Input Give pIC50 for `Cc1ccc2occ(C(=O)NC3CCN(Cc4ccccc4)CC3)c(=O)c2c1` tested on UniProt:O42275.
## Output 5.76

## Input Give pIC50 for `O=C(NCCC1CCN(Cc2ccccc2)CC1)c1coc2ccc(Br)cc2c1=O` tested on UniProt:O42275.
## Output 6.98

## Input Give pIC50 for `O=C(NCCC1CCN(Cc2ccccc2)CC1)c1coc2ccccc2c1=O` tested on UniProt:O42275.
## Output 7.16

## Input Give pIC50 for `COc1ccc2occ(C(=O)NC3CCN(Cc4ccccc4)CC3)c(=O)c2c1` tested on UniProt:O42275.
## Output 4.99

## Input Give pIC50 for `O=C(NCCC1CCN(Cc2ccccc2)CC1)c1cc(=O)c2ccccc2o1` tested on UniProt:O42275.
## Output 6.51

## Input Give pIC50 for `O=C(NCCC1CCN(Cc2ccccc2)CC1)c1coc2ccc(OCc3ccccc3)cc2c1=O` tested on UniProt:O42275.
## Output 6.43

Entry source: ChEMBL document CHEMBL4699390
